- run_description: reversal of MRP1-mediated doxorubicin resistance, pilot screen, H69AR cells, doxorubicin co-treatment (AID 601)
- test_conditions: H69AR cells + 2 uM doxorubicin, CellTiter-Glo, 72 h; measured here: viability with 2 uM doxorubicin; at 10 µM; stronger effect = lower value
quantity_measured: viability (%)
Give just the numeric value; % need not be written.

Recorded results for 3 molecules are shown here.
CCN(CCCc1ccccc1)CCCc1ccccc1 | 91.2
O=C(CSc1nc(-c2ccco2)cc(C(F)(F)F)n1)N1CCCc2ccccc21 | 81.9
CC(=O)c1cc(-c2ccccc2)n(CC(=O)N2CCN(C3CCCC3)CC2)c1C | 80.6

// next entry
Give me measured viability, please, for this molecule: `O=C(OCC(=O)c1ccccc1Br)c1ccccn1`
81.7
